B1: Osa-1-4 twister ribozyme (parent)
chain: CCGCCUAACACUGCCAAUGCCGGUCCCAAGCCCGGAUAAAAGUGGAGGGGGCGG

Variants of: B1
assayNotes: self-cleavage, relative activity (ratio to wild type); higher = more cleavage; co-transcriptional
endpointName: self-cleavage

> print(dat)
                              sequencestring  experimentalresult
 1  CCGCCUAACGCUGCCAAUGCCGGUCCCAAGCCCGGUUAAAAGUGGAGGGGGCGG                0.94
 2  CCGCCUAACACUGCCAAUGCCGGUCCCAAUCCCGGAUAAGAGUGGAGGGGGCGG                0.05
 3  CCGCCUAACACUGCCAAUGCCGGUCCGAAGCCCGGAUAAAAGUGGAGGGAGCGG                0.09
 4  CCGCCUAACACUGCCAAUGCCGGGCUCAAGCCCGGAUAAAAGUGGAGGGGGCGG                0.04
 5  CCGCCUAACACUGACAAUGCCGGUCCCAAGCCCGGAUAAAAGUGGAGGGGCCGG                0.02
 6  CCGCCUAACACCGCCAAUGCCGGUCCCAAGCCAGGAUAAAAGUGGAGGGGGCGG                0.06
 7  CCGCCUAACACUGCCAAUGCAGGUCCCAAGCCCGGAUAAAAGUGGAGGGGACGG                0.31
 8  CCGCCUAACACUGCCAAUGCCGGUCCCAAGCCCGGUUAAAAGUGGAGGGGGUGG                1.06
 9  CCGCCUAAACCUGCCAAUGCCGGUCCCAAGCCCGGAUAAAAGUGGAGGGGGCGG                0.43
10  CCGCCUAACACUGCCAAAGCCAGUCCCAAGCCCGGAUAAAAGUGGAGGGGGCGG                1.02
11  CCGCCUAACACUGCCAAUGCCGGUCCCAAGCCCUGAUAAAAGUGGAGGGUGCGG                0.73
12  CCGCCUAACACUGCCAAUGCCGAUUCCAAGCCCGGAUAAAAGUGGAGGGGGCGG                0.11
13  CCGCCUAACACUGCCAAUGCCGGUCCCAAGCCCGCAUAAAAGCGGAGGGGGCGG                0.09
14  CCGCCUAACACUGCUAAUGCCGGUCCCAAGCCCGGAUAAAAGUGGAGGGGGUGG                0.48
15  CCGCCUAACACUGCCAAUGCCGGUCCCAAGCGCGGAUAAAAGUGGAGGGGGCUG                0.07
